The reported measurements were obtained from ChEMBL document CHEMBL5724914.

conditions: human gut metagenome, 24 h, 2 µM; further: call rule not given here
quantity: Bacterial Biotransformation

compound	Bacterial Biotransformation
Cc1nc2n(c(=O)c1CCN1CCC(c3noc4cc(F)ccc34)CC1)CCCC2 [RISPERIDONE]	Compound NOT metabolized
CC(C)OC(=O)C(C)(C)Oc1ccc(C(=O)c2ccc(Cl)cc2)cc1 [FENOFIBRATE]	Compound metabolized
Cc1cc2c(cc1S(N)(=O)=O)S(=O)(=O)CCC2	Compound NOT metabolized
CN/C(=N/CCSCc1nc[nH]c1C)NC#N [CIMETIDINE]	Compound NOT metabolized
COc1ccc2[nH]c([S+]([O-])Cc3ncc(C)c(OC)c3C)nc2c1 (configuration not stated) [OMEPRAZOLE]	Compound metabolized
CC(C)(C#N)c1cc(Cn2cncn2)cc(C(C)(C)C#N)c1 [ANASTROZOLE]	Compound NOT metabolized
COc1c2occc2cc2ccc(=O)oc12 [METHOXSALEN]	Compound NOT metabolized
CCCC1O[C@@H]2C[C@H]3[C@@H]4CCC5=CC(=O)C=C[C@]5(C)[C@H]4[C@@H](O)C[C@]3(C)[C@]2(C(=O)CO)O1 (some centres not stated) [BUDESONIDE]	Compound NOT metabolized

Which Bacterial Biotransformation value belongs to O=C(O)COCCN1CCN(C(c2ccccc2)c2ccc(Cl)cc2)CC1 (configuration not stated) [CETIRIZINE] ?
Compound metabolized

Which Bacterial Biotransformation value belongs to C=CCc1ccccc1OCC(O)CNC(C)C (configuration not stated) [ALPRENOLOL] ?
Compound NOT metabolized

Which Bacterial Biotransformation value belongs to COc1ccc2c3c1O[C@H]1C[C@@H](O)C=C[C@@]31CCN(C)C2 [GALANTAMINE] ?
Compound NOT metabolized

Which Bacterial Biotransformation value belongs to CCCC(=O)Nc1ccc(OCC(O)CNC(C)C)c(C(C)=O)c1 (configuration not stated) [ACEBUTOLOL] ?
Compound NOT metabolized

Which Bacterial Biotransformation value belongs to c1ccc([C@H]2CN3CCSC3=N2)cc1 [LEVAMISOLE] ?
Compound NOT metabolized
